test: Cell Viability - MRC5 (AID 434); conditions: MRC5 lung fibroblast viability, qHTS;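 further: cells exposed to compound for 40 hours at 37 °C; potency reflects cytotoxicity seen as loss of intracellular ATP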
Records with an inconclusive call do not appear. The source made the active and inactive calls. The call rests on the fitted dose curve.
Hi there, use one of these labels in your reply, thanks! active, inactive

Problem: Recorded test outcome, item Nc1nc2ccc([N+](=O)[O-])cc2s1
Result: inactive

Problem: Recorded test outcome, item Nc1ccc(O)c([N+](=O)[O-])c1
Result: inactive

Problem: Recorded test outcome, item O=C(O)c1cc(O)c(O)c(O)c1
Result: inactive

Problem: Recorded test outcome, item O=C1CN(/N=C/c2ccc([N+](=O)[O-])o2)C(=O)N1
Result: inactive

Problem: Recorded test outcome, item CN(C)c1ccc(C(=C2C=CC(=[N+](C)C)C=C2)c2ccccc2)cc1
Result: active

Problem: Recorded test outcome, item Nc1ccc(O)c(C(=O)O)c1
Result: inactive

Problem: Recorded test outcome, item CCCOC(=O)c1ccc(O)cc1
Result: inactive

Problem: Recorded test outcome, item CN1CCC[C@H]1c1cccnc1
Result: inactive

Problem: Recorded test outcome, item c1cnc2c(c1)ccc1cccnc12
Result: inactive

Problem: Recorded test outcome, item COc1cc(/C=C/C(=O)CC(=O)/C=C/c2ccc(O)c(OC)c2)ccc1O
Result: active

Problem: Recorded test outcome, item c1ccc2sc(SSc3nc4ccccc4s3)nc2c1
Result: inactive

Problem: Recorded test outcome, item CCCCCCCCCCCCCCCCCC(=O)O
Result: inactive

Problem: Recorded test outcome, item Nc1ccc([N+](=O)[O-])cc1O
Result: inactive

Problem: Recorded test outcome, item S=c1[nH]c2ccccc2s1
Result: inactive

---

biological target: ATP-dependent 6-phosphofructokinase (Trypanosoma brucei brucei) (UniProt O15648); test: qHTS Validation Assay to Find Inhibitors of T. brucei phosphofructokinase (AID 485368); conditions: T. brucei PFK enzyme assay, qHTS 7-point titration; series mostly up to 57.5 µM
Sequence (O15648 whole entry, looked up): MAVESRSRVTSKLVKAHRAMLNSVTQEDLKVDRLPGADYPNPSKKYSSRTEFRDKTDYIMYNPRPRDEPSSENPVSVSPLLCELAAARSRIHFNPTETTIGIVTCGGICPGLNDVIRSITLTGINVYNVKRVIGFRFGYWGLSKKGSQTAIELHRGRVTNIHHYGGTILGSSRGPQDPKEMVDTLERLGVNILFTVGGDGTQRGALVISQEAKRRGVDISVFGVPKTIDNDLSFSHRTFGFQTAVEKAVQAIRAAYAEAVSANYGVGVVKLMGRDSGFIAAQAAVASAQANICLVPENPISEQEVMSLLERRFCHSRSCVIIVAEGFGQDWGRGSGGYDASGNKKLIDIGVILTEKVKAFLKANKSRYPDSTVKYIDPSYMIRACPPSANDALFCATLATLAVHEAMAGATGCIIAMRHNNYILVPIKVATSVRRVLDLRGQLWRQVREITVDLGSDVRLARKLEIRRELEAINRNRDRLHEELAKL
Records with an inconclusive call do not appear. Activity calls are given as the source filed them. Calls come from the whole dose curve; as a rule, active = well fitted inhibition curve with a large enough effect; inconclusive = small, poorly fitted or top-dose-only effect, or effect the other way; inactive = flat fitted curve, though single readings scatter.
Hi there, use one of these labels in your reply, thanks! active, inactive

Problem: Recorded test outcome, item CC(C)(C=O)Cc1cc(C(C)(C)C)c(O)c(C(C)(C)C)c1
Result: inactive

Problem: Recorded test outcome, item O=C(O)/C=C/C(O)c1ccc(Cl)cc1 (stereo not drawn)
Result: inactive

Problem: Recorded test outcome, item CN1CCC[C@H]1c1cccnc1
Result: inactive

Problem: Recorded test outcome, item N[C@@H](CC(=O)O)C(=O)O
Result: inactive

Problem: Recorded test outcome, item C[N+](C)(C)CCOP(=O)(O)OP(=O)([O-])OC[C@H]1O[C@@H](n2ccc(N)nc2=O)[C@H](O)[C@@H]1O
Result: inactive

Problem: Recorded test outcome, item O=c1[nH]c2cc(C(F)(F)F)ccc2n1-c1cc(C(F)(F)F)ccc1O
Result: inactive

Problem: Recorded test outcome, item Cn1c(=O)c2[nH]c(-c3ccccc3)nc2n(C)c1=O
Result: inactive

Problem: Recorded test outcome, item CN=c1nc(-c2ccccc2)n(-c2ccccc2)s1
Result: active

Problem: Recorded test outcome, item O=C(CCCCCN1CCN(c2ccccc2-c2ccccc2)CC1)NC1CCCc2ccccc21 (stereo not drawn)
Result: inactive

Problem: Recorded test outcome, item Clc1ccc(N2CCN(Cc3cc4ccccn4n3)CC2)cc1
Result: inactive

Problem: Recorded test outcome, item C=C[C@H]1CN2CC[C@@H]1C[C@@H]2[C@@H](O)c1ccnc2ccc(OC)cc12
Result: inactive

Problem: Recorded test outcome, item COc1ccc(NC(=O)/C=C/c2ccc(Cl)cc2)cc1
Result: inactive

Problem: Recorded test outcome, item O=Nc1ccc2oc(=O)ccc2c1
Result: active

Problem: Recorded test outcome, item CCCCCCCCCCCCCCCCCC(=O)NCC(COP(=O)([O-])OCC[N+](C)(C)C)OCC (stereo not drawn)
Result: inactive

Problem: Recorded test outcome, item Nc1ncnc2c1ncn2[C@@H]1O[C@H](COP(=O)(O)CP(=O)(O)OP(=O)(O)O)[C@@H](O)[C@H]1O
Result: inactive

Problem: Recorded test outcome, item O=c1[nH]c2cc([N+](=O)[O-])c([N+](=O)[O-])cc2[nH]c1=O
Result: inactive

Problem: Recorded test outcome, item CCCC1(C)C(C#N)(C#N)C1(C#N)C#N
Result: inactive

Problem: Recorded test outcome, item Cc1ccc(O)c(N=Nc2ccccc2)n1
Result: active

Problem: Recorded test outcome, item CN1CCc2cccc3c2C1Cc1ccc(O)c(O)c1-3 (stereo not drawn)
Result: active

Problem: Recorded test outcome, item CO/N=C(\C(=O)N[C@@H]1C(=O)N2C(C(=O)O)=C(COC(C)=O)CS[C@H]12)c1csc(N)n1
Result: active

Problem: Recorded test outcome, item Fc1cccc(/C=N/N=C/c2cccc(F)c2)c1
Result: inactive

Problem: Recorded test outcome, item N=c1ccn2c(n1)O[C@H]1[C@H](O)[C@@H](CO)O[C@H]12
Result: inactive

Problem: Recorded test outcome, item O=C(Nc1ccccc1)c1cc([N+](=O)[O-])ccc1Cl
Result: inactive
